Exercise: state measured change in vivo at 100 mg/kg for each of the compounds provided.
Test system: cholesterol level in the plasma
protocol: Hypocholesterolemic activity: plasma cholesterol level in rats
Type: in vivo, male Wistar rats
protocolConditions: Rattus norvegicus, po; 100 mg/kg p.o. at T=0 and T=+7 hours; T=0 to T=+24 hours; not corrected for the variation in the control group; read-out: % Variation in the cholesterol level, variation in the subject treated
Give bare numbers, in %.

// solved cases for change in vivo at 100 mg/kg follow
O=[N+]([O-])c1ccc(Cc2ccc(O[C@@H]3OC[C@H](O)[C@H](O)[C@H]3O)cc2)cc1 : -29
Cc1ccc(Cc2cc(C)c(OC3OC[C@@H](O)[C@H](O)[C@H]3O)c(C)c2)cc1 (some centres unmarked) : -12
Cc1ccc(Cc2ccc(O[C@@H]3OC[C@@H](O)[C@H](O)[C@H]3O)cc2)cc1 : -19
CS(=O)(=O)c1ccc(Cc2ccc(O[C@@H]3O[C@H](CO)[C@@H](O)[C@H](O)[C@H]3O)cc2)cc1 : -40

response.value for Cc1cccc(Cc2ccc(O[C@@H]3OC[C@@H](O)[C@H](O)[C@H]3O)cc2)c1 (field: change in vivo at 100 mg/kg) = -24

----------
Tested on: cholesterol level in the plasma
protocol: Hypocholesterolemic activity: plasma cholesterol level in rats
Assay type: in vivo, male Wistar rats
protocolConditions: Rattus norvegicus, po; 100 mg/kg p.o. at T=0 and T=+7 hours; T=0 to T=+24 hours; not corrected for the variation in the control group; read-out: % Variation in the cholesterol level, variation in the subject treated
Give MET when the value for change in vivo at 100 mg/kg is at least -30%. Give NOT MET when it is less.

Completed entries (count: 4):
CC(=O)O[C@@H]1[C@@H](OC(C)=O)[C@H](Oc2ccc(Cc3c(C)cc(C)cc3C)cc2)OC[C@H]1OC(C)=O [Example 62] : MET
O=[N+]([O-])c1ccc(Cc2ccc(O[C@@H]3O[C@H](CO)[C@H](O)[C@H](O)[C@H]3O)cc2)cc1 [Example 4] : NOT MET
Cc1ccccc1Cc1ccc(O[C@@H]2OC[C@@H](O)[C@H](O)[C@H]2O)cc1 [Example 12] : MET
Nc1cccc(Cc2ccc(O[C@@H]3OC[C@@H](O)[C@H](O)[C@H]3O)cc2)c1 [Example 23] : MET

Exam item: decide whether the reported change in vivo at 100 mg/kg for O=[N+]([O-])c1cccc(Cc2ccc(O[C@@H]3OC[C@@H](O)[C@H](O)[C@H]3O)cc2)c1 [Example 2] is at least -30%.
MET

Exam item: decide whether the reported change in vivo at 100 mg/kg for COc1ccc(Cc2ccc(O[C@@H]3OC[C@@H](O)[C@H](O)[C@H]3O)cc2)cc1 [Example 15] is at least -30%.
NOT MET
